Assignment: determine reported IC50 for the given molecules.
Target: Human thrombin (Homo sapiens, UniProt P00734)
Construct: purchased Haematologic Technologies Inc
Experiment: Inhibition of the protease activity of thrombin (chromogenic substrate S-2238)
Type: biochemical
Details: inhibition of the protease activity of thrombin; class symbols a/b/c

Example molecules with recorded IC50:
CN(C)C(=O)c1cc(-c2ccccn2)nn1CCc1ccc(F)cc1 [Cmpd 128] : > 1 µM
CCC(=O)n1nc(-c2cccnc2)cc1NCc1ccc(F)cc1 [Cmpd 74] : > 1 µM
CC(C)CC(=O)n1nc(-c2ccccn2)cc1NCc1ccccc1 [Cmpd 144] : 0.1 to 1 µM
O=C(c1cc(-c2ccccn2)nn1CCc1ccc(F)cc1)N1CCCCC1 [Cmpd 54] : > 1 µM
COC(=O)c1n[nH]c(NC(=O)c2ccccc2OC)n1 [Cmpd 194] : > 1 µM
O=C(Nc1nc(C(=O)N2CCOCC2)n[nH]1)c1ccc(Cl)cc1 [Cmpd 184] : > 1 µM

Provide the reported IC50 of each entry below, same order.
1. O=C(c1cccc2c1OCCO2)n1nc(-c2ccccc2)nc1NCc1ccc(F)cc1 [Cmpd 102]
2. CCC(=O)n1nc(-c2cccc(F)c2)nc1NCc1ccccc1 [Cmpd 135]
3. CCOC(=O)c1cc(-c2ccccn2)n(CCc2ccc(F)cc2)n1 [Cmpd 57]
4. CC(O)c1cc(-c2ccccn2)nn1CCc1ccc(F)cc1 (centres unmarked) [Cmpd 163]
5. O=C(CCc1ccccc1)n1nc(-c2ccncc2)nc1NCc1ccccc1 [Cmpd 149]
6. CC(C)(C)C(=O)n1nc(-c2ccncc2)nc1NCc1ccccc1 [Cmpd 145]

Reply:
1. < 0.1 µM
2. 0.1 to 1 µM
3. > 1 µM
4. > 1 µM
5. 0.1 to 1 µM
6. < 0.1 µM

###

Target: Human thrombin (Homo sapiens, UniProt P00734)
Construct: purchased Haematologic Technologies Inc
Experiment: Inhibition of the protease activity of thrombin (chromogenic substrate S-2238)
Assay type: biochemical
Conditions: Table C; 3 nM thrombin, 125 μM S-2238, 10 min pre-incubation, RT
Protocol: Compounds described herein can be assayed, by a variety of methods known in the art and described herein, for inhibition of biological activity, e.g., protease activity, of a variety of proteins, e.g., thrombin. […] Thrombin was assayed in buffer containing 0.05 M Tris (pH 7.4), 0.015 M NaCl and 0.01% PEG-8000. […] Inhibitor IC50 values were determined by adding test compound as ten point, three-fold serial dilutions in buffer solution, as known in the art. […]
pIC50: −log10 of the molar value.
property: pIC50

O=C(Cc1ccccc1)n1nc(-c2ccco2)nc1NCc1ccccc1 : > 7.00
COC(=O)c1nnc(NC(=O)c2ccc(Br)cc2)[nH]1 : < 6.00
CCC(=O)n1nc(-c2cccnc2)nc1NCc1cccc(F)c1 : 6.00 to 7.00
O=C(Nc1ccc(Br)cc1)c1nc(-n2cnnc2)n[nH]1 : < 6.00
COC(=O)c1n[nH]c(NC(=O)c2ccccc2C)n1 : < 6.00

Provide the reported pIC50 of each entry below, same order.
1. COc1ccccc1CNc1nc(-c2cccnc2)nn1C(=O)C(C)C
2. COc1ccc(CNc2nc(-c3cccnc3)nn2C(=O)CC(C)C)cc1
3. O=C(c1cccs1)n1nc(-c2cccnc2)nc1NCc1ccc(F)cc1
4. COc1ccc(CNc2nc(-c3cccnc3)nn2C(=O)C(C)C)cc1
5. Nc1n[nH]c(-c2ccncc2)n1
6. CCC(=O)n1nc(-c2ccc(F)cc2)nc1NCc1ccccc1

Reply:
1. < 6.00
2. > 7.00
3. > 7.00
4. > 7.00
5. < 6.00
6. < 6.00

Provide the reported pIC50 of each entry below, same order.
1. CC(=O)n1nc(-c2cccnc2)nc1NCc1ccc(F)cc1
2. Nc1n[nH]c(-c2ccccn2)n1
3. CC(C)CC(=O)n1nc(-c2cccnc2)nc1NCc1cccs1
4. CC(C)C(=O)n1nc(-c2cccnc2)nc1NCc1ccc(Cl)cc1

Reply:
1. > 7.00
2. < 6.00
3. > 7.00
4. > 7.00

Provide the reported pIC50 of each entry below, same order.
1. Nc1nc(C(=O)N2CCOCC2)nn1S(=O)(=O)c1ccccc1
2. CC(C)C(=O)n1nc(-c2cccnc2)nc1NCc1ccco1
3. COC(=O)c1n[nH]c(NC(=O)CCc2ccc(C)cc2)n1
4. CC(=O)n1nc(-c2cccnc2)nc1NCc1cccs1
5. CCCC(=O)n1nc(-c2cccnc2)nc1NCc1cccs1
6. CC(C)C(=O)n1nc(-c2cccnc2)nc1NCc1ccc(F)cc1

Reply:
1. < 6.00
2. > 7.00
3. < 6.00
4. > 7.00
5. > 7.00
6. > 7.00

Provide the reported pIC50 of each entry below, same order.
1. Cc1ccc(C(=O)n2nc(-c3cccnc3)nc2N)cc1
2. CCC(=O)n1nc(-c2ccccc2)nc1NCc1ccccc1
3. CCC(=O)n1nc(-c2cccnc2)nc1NCc1ccc(Cl)cc1
4. CC(C)C(=O)n1nc(-c2cccnc2)nc1NCc1ccccc1
5. Nc1nc(-c2ccco2)n[nH]1
6. CSc1nc(-c2ccco2)nn1C(=O)c1ccccc1Cl

Reply:
1: 6.00 to 7.00; 2: 6.00 to 7.00; 3: > 7.00; 4: > 7.00; 5: < 6.00; 6: > 7.00

###

Target: Human thrombin (Homo sapiens, UniProt P00734)
Construct: purchased Haematologic Technologies Inc
Experiment: Inhibition of the protease activity of thrombin (chromogenic substrate S-2238)
Format: biochemical
Conditions: inhibition of the protease activity of thrombin; class symbols a/b/c
property: IC50

Example compounds with recorded IC50:
COc1ccccc1C(=O)n1nc(-c2ccncn2)nc1NCc1ccccc1 : < 100 nM
O=C(CCc1ccccc1)n1nc(-c2ccccn2)nc1NCc1ccc(F)cc1 : < 100 nM
CCC(=O)n1nc(-c2cccnc2)nc1N(C)C : > 1000 nM
COc1ccc(CNc2nc(-c3ccncc3)nn2C(=O)CC(C)C)cc1 : < 100 nM

Provide the reported IC50 of each entry below, same order.
1. COc1ccccc1C(=O)n1nc(-c2cccnc2)nc1SC
2. CCC(O)c1cc(-c2ccccn2)nn1CCc1ccc(F)cc1 (centres unmarked)

Reply:
["< 100 nM", "> 1000 nM"]

###

Target: Human thrombin (Homo sapiens)
Construct: purchased Haematologic Technologies Inc
Assay: Inhibition of the protease activity of thrombin (chromogenic substrate S-2238)
Type: biochemical
Settings: Table C; 3 nM thrombin, 125 μM S-2238, 10 min pre-incubation, RT
property: IC50

Example molecules with recorded IC50:
CC(C)(C)C(=O)n1nc(-c2ccco2)nc1NCc1ccc(F)cc1 : < 100 nM
O=C(c1cccnc1)n1nc(-c2ccco2)nc1NCc1ccccc1Cl : 100 to 1000 nM
COc1ccc(CNc2nc(-c3cccnc3)nn2C(=O)CCc2ccccc2)cc1 : 100 to 1000 nM
Nc1nc(-c2cccnc2)nn1S(=O)(=O)c1ccccc1 : > 1000 nM

Please look at the following molecule next.
Ask: So what does the record say about IC50 for `O=C(c1ccccc1)n1nc(-c2cccnc2)nc1NCc1ccc(F)cc1` ?
Reply: < 100 nM

###

Target: Human thrombin (Homo sapiens, UniProt P00734)
Construct: purchased Haematologic Technologies Inc
Test: Inhibition of the protease activity of thrombin (chromogenic substrate S-2238)
Assay type: biochemical
Conditions: inhibition of the protease activity of thrombin; class symbols a/b/c
Experimental: Compounds described herein can be assayed, by a variety of methods known in the art and described herein, for inhibition of biological activity, e.g., protease activity, of a variety of proteins, e.g., thrombin. […] Thrombin was assayed in buffer containing 0.05 M Tris (pH 7.4), 0.015 M NaCl and 0.01% PEG-8000. […] Inhibitor IC50 values were determined by adding test compound as ten point, three-fold serial dilutions in buffer solution, as known in the art. […]
pIC50: −log10 of the molar value.
property: pIC50

Example molecules with recorded pIC50:
COc1ccc(CNc2nc(-c3ccccn3)nn2C(=O)c2ccccc2)cc1 [Cmpd 157] : 6.00 to 7.00
CC(C)CC(=O)n1nc(-c2ccncc2)nc1NCc1ccccc1 [Cmpd 148] : > 7.00
CC(C)C(=O)n1nc(-c2ccccn2)nc1NCc1ccccc1 [Cmpd 138] : > 7.00
CC(C)CC(=O)n1nc(-c2ccccn2)nc1NCc1ccccc1 [Cmpd 140] : > 7.00
COc1ccc(CNc2nc(-c3ccncc3)nn2C(=O)CCc2ccccc2)cc1 [Cmpd 98] : < 6.00

Provide the reported pIC50 of each entry below, same order.
1. O=C(Nc1ccccc1)n1nc(-c2cccnc2)nc1NCc1ccc(F)cc1 [Cmpd 191]
2. CC(C)CC(=O)n1nc(-c2ccncc2)nc1NCc1ccc(F)cc1 [Cmpd 78]
3. CN(C)C(=O)c1n[nH]c(C(=O)Nc2ccccc2Cl)n1 [Cmpd 186]
4. CCCC(=O)n1nc(-c2ccncc2)nc1NCc1ccc(F)cc1 [Cmpd 80]

Reply:
1: < 6.00; 2: > 7.00; 3: < 6.00; 4: > 7.00

Provide the reported pIC50 of each entry below, same order.
1. CCOC(=O)c1cn(-c2ccccn2)nc1NCc1ccc(F)cc1 [Cmpd 46]
2. O=C(Nc1cc(-c2ccccn2)nn1-c1ccccc1Cl)c1ccc(F)cc1 [Cmpd 43]

Reply:
["< 6.00", "< 6.00"]

Provide the reported pIC50 of each entry below, same order.
1. CSc1nc(-c2cccnc2)nn1C(=O)c1ccccc1Cl [Cmpd 180]
2. COc1ccc(CNc2nc(-c3ccncc3)nn2C(=O)C(C)(C)C)cc1 [Cmpd 16]
3. O=C(Oc1ccccc1Cl)n1nc(-c2cccnc2)nc1NCc1ccc(F)cc1 [Cmpd 172]
4. O=C(c1ccccc1)n1nc(-c2ccccn2)nc1NCc1ccccc1 [Cmpd 159]
5. O=C(c1ccc(Cl)cc1)n1nc(-c2ccccn2)nc1NCc1ccc(F)cc1 [Cmpd 121]
6. CC(C)(C)C(=O)Nc1nc(C(=O)N2CCOCC2)n[nH]1 [Cmpd 169]
7. Fc1ccc(CNc2nc(-c3cccnc3)n[nH]2)cc1 [Cmpd 4]

Reply:
["> 7.00", "> 7.00", "< 6.00", "> 7.00", "> 7.00", "< 6.00", "< 6.00"]

Provide the reported pIC50 of each entry below, same order.
1. CCC(=O)n1nc(-c2ccccn2)nc1NCc1ccc(OC)cc1 [Cmpd 93]
2. CCC(=O)n1nc(-c2ccncc2)nc1NCc1ccccc1 [Cmpd 151]
3. O=C(Nc1ccccc1F)n1nc(-c2cccnc2)nc1NCc1ccc(F)cc1 [Cmpd 18]
4. CC(C)C(=O)n1nc(-c2ccncc2)nc1NCc1ccc(F)cc1 [Cmpd 76]
5. O=C(c1ccccc1Cl)n1nc(-c2cccnc2)nc1SCc1ccc(F)cc1 [Cmpd 181]

Reply:
1: > 7.00; 2: > 7.00; 3: < 6.00; 4: > 7.00; 5: 6.00 to 7.00

Provide the reported pIC50 of each entry below, same order.
1. CN(C)C(=O)n1nc(-c2cccnc2)nc1NCc1ccc(F)cc1 [Cmpd 188]
2. O=C(c1ccccc1Cl)n1nc(-c2ccccc2)cc1NCc1ccc(F)cc1 [Cmpd 114]
3. O=C(O)c1cn(-c2ccccn2)nc1NCc1ccc(F)cc1 [Cmpd 47]
4. O=C(c1ccccc1Cl)n1nc(-c2cccs2)nc1NCc1ccc(F)cc1 [Cmpd 113]

Reply:
< 6.00
< 6.00
< 6.00
> 7.00

Ask: So what does the record say about pIC50 for CCCC(=O)n1nc(-c2ccccn2)nc1NCc1ccc(OC)cc1 [Cmpd 92] ?
Reply: > 7.00

Values were extracted from patent US20170326125A1.
